- method-notes: Antiinflammatory activity in FMLP/CB activated human neutrophils assessed as inhibition of superoxide generation by ferricytochrome c reduction based spectrophotometry
- Assay type: functional, cell-based, Neutrophil
- test-context: Homo sapiens, Neutrophil; read-out: IC50
assay-endpoint: IC50 (nM)

INSERT INTO results (smiles_repr, unit_name, test_result) VALUES
  ('C=C1C(=O)[C@@]23CC[C@@H]4[C@@](C)(COC(C)=O)CCC[C@@]4(C)[C@@H]2[C@@H](OC(C)=O)C[C@@H]1C3', 'nM', 3110),
  ('CC(=O)O[C@@H]1C[C@@H]2C[C@@]3(C=C2C=O)CC[C@H]2[C@](C)(CO)CCC[C@]2(C)[C@@H]13', 'nM', 3200);

a = C=C1C(=O)[C@@]23CC[C@@H]4[C@@](C)(COC(C)=O)CCC[C@@]4(C)[C@@H]2CC[C@@H]1C3
b = CC(=O)OC[C@@]1(C)CCC[C@]2(C)[C@@H]1CC[C@]13CC(=O)[C@H](C[C@H](OC(C)=O)[C@H]12)C3
// compare: a vs b , metric IC50, want the smaller Answer by stating the label of the chosen item.
a

P = C=C1C(=O)[C@]23C[C@@H]1CC[C@H]2[C@]1(C)CCCC(C)(C)[C@H]1C[C@@H]3O
Q = C=C1C(=O)[C@]23C[C@H]1CC[C@H]2[C@]1(C)CCC[C@](C)(COC(C)=O)[C@H]1C[C@H]3OC(C)=O
I need your help: which of the pair P , Q has higher IC50? Answer by stating the label of the chosen item.
Q
(Q: 2880 nM, P: 1740 nM)
